These data points were gathered from patent US12595252B2.

Measured IC50, listed per entry for reference.
Target: SARM1 (Homo sapiens, UniProt Q6SZW1)
Construct: made in house; host or cells: NRK1-HEK293T cells, transiently transfected; clarified lysate used unpurified
Sequence (Q6SZW1 with tags, fused parts or gaps): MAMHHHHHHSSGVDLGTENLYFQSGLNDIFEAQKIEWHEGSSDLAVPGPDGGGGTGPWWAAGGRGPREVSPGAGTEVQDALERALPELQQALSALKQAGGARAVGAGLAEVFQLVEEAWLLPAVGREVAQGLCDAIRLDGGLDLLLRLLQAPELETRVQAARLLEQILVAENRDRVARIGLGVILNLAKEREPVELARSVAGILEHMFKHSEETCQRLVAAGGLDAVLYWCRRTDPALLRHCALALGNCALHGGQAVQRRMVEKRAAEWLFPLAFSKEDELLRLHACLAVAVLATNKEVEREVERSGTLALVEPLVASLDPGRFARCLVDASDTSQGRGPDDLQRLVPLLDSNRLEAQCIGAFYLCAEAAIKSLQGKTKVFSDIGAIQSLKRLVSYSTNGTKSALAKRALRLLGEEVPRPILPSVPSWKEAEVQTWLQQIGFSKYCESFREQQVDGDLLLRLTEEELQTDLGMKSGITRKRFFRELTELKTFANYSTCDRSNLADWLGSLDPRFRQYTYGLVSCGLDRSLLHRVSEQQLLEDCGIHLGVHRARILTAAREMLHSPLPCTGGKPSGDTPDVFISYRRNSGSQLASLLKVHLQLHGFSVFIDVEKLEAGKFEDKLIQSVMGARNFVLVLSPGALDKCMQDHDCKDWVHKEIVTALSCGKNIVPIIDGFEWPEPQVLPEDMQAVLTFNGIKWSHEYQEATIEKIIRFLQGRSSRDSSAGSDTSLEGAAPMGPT
Test: ARM-SAM-TIR SARM1 IC50 assay (NADase activity, NAD+ cleavage)
Type: biochemical
Conditions: ARM-SAM-TIR lysate 5 μg/mL from NRK1-HEK293T cells; 2 h pre-incubation; 5 μM NAD+; 2 hr room temperature; NAD+ and ADPR by RapidFire MS; read-out: SARM1 IC50

[
  {
    "compound": "COc1cncc(NCc2ccccc2F)n1",
    "IC50": "5 to 15 µM"
  },
  {
    "compound": "Clc1cncc(NCc2cccnc2)n1",
    "IC50": "> 30 µM"
  },
  {
    "compound": "CNc1cncc(OCCCN)n1",
    "IC50": "> 30 µM"
  },
  {
    "compound": "COc1cncc(NCc2cnn(C)c2)n1",
    "IC50": "15 to 30 µM"
  },
  {
    "compound": "COc1cncc(NCC2CCCOC2)n1 (stereo not drawn)",
    "IC50": "> 30 µM"
  },
  {
    "compound": "COc1cncc(NCc2cnn(C3CCNCC3)c2)n1",
    "IC50": "< 5 µM"
  },
  {
    "compound": "COc1cncc(NC(=O)c2ccccc2)c1",
    "IC50": "> 30 µM"
  },
  {
    "compound": "Clc1cncc(OCc2cccnc2)n1",
    "IC50": "> 30 µM"
  },
  {
    "compound": "COc1cncc(N)c1",
    "IC50": "15 to 30 µM"
  },
  {
    "compound": "CCN1CCN(c2cccc(CNc3cncc(OC)n3)c2)CC1",
    "IC50": "5 to 15 µM"
  },
  {
    "compound": "COc1cncc(NCc2ccc(N3CCC(O)CC3)nc2)n1",
    "IC50": "5 to 15 µM"
  },
  {
    "compound": "COc1cncc(NCc2cnc(C)s2)n1",
    "IC50": "5 to 15 µM"
  },
  {
    "compound": "COc1cncc(NCc2ccc(Br)c(C)c2)n1",
    "IC50": "5 to 15 µM"
  },
  {
    "compound": "CCCOc1cncc(NCc2cnn(C)c2)n1",
    "IC50": "> 30 µM"
  },
  {
    "compound": "COc1cncc(NCc2ccn(C)n2)n1",
    "IC50": "5 to 15 µM"
  },
  {
    "compound": "COc1cncc(NCc2cccc(N3CCNCC3)c2)n1",
    "IC50": "5 to 15 µM"
  },
  {
    "compound": "Brc1cncc(NCc2cccnc2)n1",
    "IC50": "> 30 µM"
  },
  {
    "compound": "COc1cncc(NCc2cccc(F)c2)n1",
    "IC50": "5 to 15 µM"
  },
  {
    "compound": "COc1cncc(NCc2cnn(C3CCCCC3)c2)n1",
    "IC50": "5 to 15 µM"
  },
  {
    "compound": "CNC(=O)c1cncc(NCc2cccnc2)n1",
    "IC50": "5 to 15 µM"
  },
  {
    "compound": "CCCc1cncc(NCc2cccnc2)n1",
    "IC50": "> 30 µM"
  },
  {
    "compound": "COc1cncc(NCc2cncc3ccccc23)n1",
    "IC50": "5 to 15 µM"
  },
  {
    "compound": "Brc1cncc(CCc2ccccc2)n1",
    "IC50": "> 30 µM"
  },
  {
    "compound": "COc1cncc(NCc2ccn(C)c2)n1",
    "IC50": "5 to 15 µM"
  },
  {
    "compound": "COc1cncc(NCc2cccc(N3CCN(C(=O)OC(C)(C)C)CC3)c2)n1",
    "IC50": "5 to 15 µM"
  },
  {
    "compound": "COc1cncc(NCc2ccc(N3CCN4CCCC4C3)nc2)n1 (stereo not drawn)",
    "IC50": "< 5 µM"
  },
  {
    "compound": "COc1cncc(NC(=O)c2cccnc2)c1",
    "IC50": "> 30 µM"
  },
  {
    "compound": "COc1cncc(NCC2CCOC2)n1 (stereo not drawn)",
    "IC50": "15 to 30 µM"
  },
  {
    "compound": "COc1cncc(NCc2ccc(-c3ccccc3)nc2)n1",
    "IC50": "5 to 15 µM"
  },
  {
    "compound": "COc1cncc(NCCCc2ccccc2)n1",
    "IC50": "5 to 15 µM"
  },
  {
    "compound": "COc1cccc(CNc2cncc(OC)n2)c1",
    "IC50": "5 to 15 µM"
  },
  {
    "compound": "COc1cncc(NCc2ccc(Br)cc2)n1",
    "IC50": "< 5 µM"
  },
  {
    "compound": "COc1cncc(NCc2cccnc2)n1",
    "IC50": "5 to 15 µM"
  },
  {
    "compound": "c1cncc(CNc2cncc(-n3cccn3)n2)c1",
    "IC50": "5 to 15 µM"
  },
  {
    "compound": "CN(C)Cc1ccc(N2CCN(c3cncc(OCC4CCCC4)n3)CC2)nc1",
    "IC50": "> 30 µM"
  },
  {
    "compound": "CCOc1cncc(NS(C)(=O)=O)n1",
    "IC50": "> 30 µM"
  },
  {
    "compound": "COc1cncc(NCc2cc[nH]c(=O)c2)n1",
    "IC50": "5 to 15 µM"
  },
  {
    "compound": "COc1cncc(NCc2cc(C)no2)n1",
    "IC50": "5 to 15 µM"
  },
  {
    "compound": "CNc1cncc(OC)c1",
    "IC50": "5 to 15 µM"
  },
  {
    "compound": "COc1cncc(NCc2cn(C)nc2C)n1",
    "IC50": "> 30 µM"
  },
  {
    "compound": "CNc1cncc(NCCCCO)n1",
    "IC50": "15 to 30 µM"
  },
  {
    "compound": "COc1cncc(NC(=O)c2ccc3ccccc3n2)n1",
    "IC50": "5 to 15 µM"
  },
  {
    "compound": "COc1cc(NCc2cccnc2)cnn1",
    "IC50": "> 30 µM"
  },
  {
    "compound": "OCc1cncc(NCc2cccnc2)n1",
    "IC50": "> 30 µM"
  },
  {
    "compound": "c1ccc(COc2cncc(NCc3cccnc3)n2)cc1",
    "IC50": "> 30 µM"
  }
]
